assay: Cmax in Escherichia coli ATCC 35218 infected Wistar rat tissue cage fluid at 100 mg/kg/day, ip measured on day 4; format: ADME, organism-based, Interstitial fluid; set-up: dose 100 mg/kg/day, route intraperitoneal
metric: Cmax

C[C@H]1COc2c(N3CCN(C)CC3)c(F)cc3c(=O)c(C(=O)O)cn1c23.C[C@H]1COc2c(N3CCN(C)CC3)c(F)cc3c(=O)c(C(=O)O)cn1c23.O = 12000 ng/mL

* * *

assay: AUC in Escherichia coli ATCC 35218 infected Wistar rat tissue cage fluid at 100 mg/kg/day, ip measured on day 4; assay type: ADME, organism-based; design: route intraperitoneal
metric: AUC (µg·h/mL)

C[C@H]1COc2c(N3CCN(C)CC3)c(F)cc3c(=O)c(C(=O)O)cn1c23.C[C@H]1COc2c(N3CCN(C)CC3)c(F)cc3c(=O)c(C(=O)O)cn1c23.O = 117

* * *

test: AUC in Escherichia coli ATCC 35218 infected Wistar rat serum at 50 mg/kg/day, ip measured on day 4; format: ADME, organism-based; parameters: route intraperitoneal
metric: AUC (ng·h/mL)

C[C@H]1COc2c(N3CCN(C)CC3)c(F)cc3c(=O)c(C(=O)O)cn1c23.C[C@H]1COc2c(N3CCN(C)CC3)c(F)cc3c(=O)c(C(=O)O)cn1c23.O = 77000

* * *

test: Cmax in Staphylococcus epidermidis ATCC 27626 infected Wistar rat tissue cage fluid at 25 mg/kg, ip measured on day 4; type: ADME, organism-based; set-up: dose 25 mg/kg, route intraperitoneal
metric: Cmax (ng/mL)

CO[C@H]1/C=C/O[C@@]2(C)Oc3c(C)c(O)c4c(O)c(c(/C=N/N5CCN(C)CC5)c(O)c4c3C2=O)NC(=O)/C(C)=C\C=C\[C@H](C)[C@H](O)[C@@H](C)[C@@H](O)[C@@H](C)[C@H](OC(C)=O)[C@@H]1C [RIFAMPIN] = 6600

* * *

experiment: AUC in Escherichia coli ATCC 35218 infected Wistar rat serum at 100 mg/kg/day, ip measured on day 4; format: ADME, organism-based; set-up: route intraperitoneal
metric: AUC (µg·h/mL)

C[C@H]1COc2c(N3CCN(C)CC3)c(F)cc3c(=O)c(C(=O)O)cn1c23.C[C@H]1COc2c(N3CCN(C)CC3)c(F)cc3c(=O)c(C(=O)O)cn1c23.O = 106

* * *

assay: AUC in Staphylococcus epidermidis ATCC 27626 infected Wistar rat tissue cage fluid at 25 mg/kg, ip measured on day 4; type: ADME, organism-based; parameters: dose 25 mg/kg, route intraperitoneal
metric: AUC (µg·h/mL)

CO[C@H]1/C=C/O[C@@]2(C)Oc3c(C)c(O)c4c(O)c(c(/C=N/N5CCN(C)CC5)c(O)c4c3C2=O)NC(=O)/C(C)=C\C=C\[C@H](C)[C@H](O)[C@@H](C)[C@@H](O)[C@@H](C)[C@H](OC(C)=O)[C@@H]1C [RIFAMPIN] = 304

* * *

assay: AUC in Escherichia coli ATCC 35218 infected Wistar rat tissue cage fluid at 50 mg/kg/day, ip measured on day 4; assay type: ADME, organism-based; design: route intraperitoneal
metric: AUC (ng·h/mL)

C[C@H]1COc2c(N3CCN(C)CC3)c(F)cc3c(=O)c(C(=O)O)cn1c23.C[C@H]1COc2c(N3CCN(C)CC3)c(F)cc3c(=O)c(C(=O)O)cn1c23.O = 68000
